Target: Shroom3 (Mus musculus)
Construct: SD2 domain (aa 1,563–1,986)
Sequence (Q9QXN0 1563-1986): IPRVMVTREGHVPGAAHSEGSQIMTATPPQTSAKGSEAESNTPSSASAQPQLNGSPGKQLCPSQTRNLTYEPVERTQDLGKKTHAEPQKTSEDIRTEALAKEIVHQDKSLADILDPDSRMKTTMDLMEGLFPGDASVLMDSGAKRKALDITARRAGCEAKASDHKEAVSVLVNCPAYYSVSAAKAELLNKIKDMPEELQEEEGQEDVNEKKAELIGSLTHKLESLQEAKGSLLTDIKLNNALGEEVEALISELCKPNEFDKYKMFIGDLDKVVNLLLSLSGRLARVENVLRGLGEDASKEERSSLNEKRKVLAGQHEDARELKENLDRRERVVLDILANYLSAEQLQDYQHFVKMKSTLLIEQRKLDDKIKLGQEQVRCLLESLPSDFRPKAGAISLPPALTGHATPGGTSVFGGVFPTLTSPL
Sequence (P70336 698-957 partner): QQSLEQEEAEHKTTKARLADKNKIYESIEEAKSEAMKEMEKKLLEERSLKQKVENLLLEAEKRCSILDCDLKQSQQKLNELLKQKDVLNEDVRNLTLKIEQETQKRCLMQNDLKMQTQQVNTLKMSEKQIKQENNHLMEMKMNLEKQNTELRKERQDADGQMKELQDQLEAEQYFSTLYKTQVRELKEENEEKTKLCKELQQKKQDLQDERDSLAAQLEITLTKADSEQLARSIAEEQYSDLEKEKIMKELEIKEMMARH
Assay: ELISA of purified SD2 / biotin-R2-C1 interaction; wash-out irreversibility, DTT block and Cys-to-Ala mutagenesis
value kind: pIC50
Give bare numbers, as −log10 of the molar value.

Short answer for CC1(C)CC(=O)C2=C(C1)Nc1[nH]c(=S)[nH]c(=O)c1C2c1cccs1 (stereo not shown) : pIC50 was 4.91

Hello, the source for this data is paper PMC4467669, in case you need it.
